Entries and their MBC
Tested on: Pseudomonas aeruginosa
ASSAY_INFO: Antibacterial activity against Pseudomonas aeruginosa ATCC 27853 at 35 degC after 18 to 24 hrs
Type: functional
Write down the numeric answer in µg/mL and omit the unit.

Previously resolved entries follow.
Cc1cc(Cl)ccc1OCc1nnc(-c2cc(F)c(Cl)cc2Cl)o1    6.25
Cc1cc(OCc2nnc(-c3cc(-c4cc(F)c(Cl)cc4Cl)nc4ccccc34)o2)ccc1Cl    25
Cc1cc(Cl)ccc1OCc1nnc(-c2cc(-c3cc(F)c(Cl)cc3Cl)nc3ccccc23)o1    50
Cc1ccccc1OCc1nnc(-c2cc(F)c(Cl)cc2Cl)o1    6.25
Fc1cc(-c2cc(-c3nnc(COc4ccc(Cl)cc4)o3)c3ccccc3n2)c(Cl)cc1Cl    25
Cc1ccc(OCc2nnc(-c3cc(F)c(Cl)cc3Cl)o2)cc1    12.5
Fc1cc(-c2cc(-c3nnc(COc4ccc(Cl)cc4Cl)o3)c3ccccc3n2)c(Cl)cc1Cl    12.5
Cc1ccc(OCc2nnc(-c3cc(-c4cc(F)c(Cl)cc4Cl)nc4ccccc34)o2)cc1    50

Now, please, on to the next compound.
# value of MBC, Pseudomonas aeruginosa, item Fc1cc(-c2nnc(COc3ccccc3Cl)o2)c(Cl)cc1Cl = 25

###

Test system: Pseudomonas aeruginosa
ASSAY_INFO: Antibacterial activity against Pseudomonas aeruginosa ATCC 27853 at 37 degC after 24 hrs by disc diffusion method
Format: functional
Entries and their inhibition zone (IZ)
Write down the numeric answer in mm and omit the unit.

O=C(O)c1cn(C2CC2)c2cc(N3CCNCC3)c(F)cc2c1=O    32
Cc1ccc(OCc2nnc(-c3cc(-c4cc(F)c(Cl)cc4Cl)nc4ccccc34)o2)cc1    8

# value of inhibition zone (IZ), Pseudomonas aeruginosa, item Fc1cc(-c2cc(-c3nnc(COc4ccc(Cl)cc4)o3)c3ccccc3n2)c(Cl)cc1Cl = 32

# value of inhibition zone (IZ), Pseudomonas aeruginosa, item Cc1cc(Cl)ccc1OCc1nnc(-c2cc(F)c(Cl)cc2Cl)o1 = 29

# value of inhibition zone (IZ), Pseudomonas aeruginosa, item Cc1ccc(OCc2nnc(-c3cc(F)c(Cl)cc3Cl)o2)cc1 = 32

# value of inhibition zone (IZ), Pseudomonas aeruginosa, item Cc1cc(OCc2nnc(-c3cc(-c4cc(F)c(Cl)cc4Cl)nc4ccccc34)o2)ccc1Cl = 26

# value of inhibition zone (IZ), Pseudomonas aeruginosa, item Fc1cc(-c2cc(-c3nnc(COc4ccccc4Cl)o3)c3ccccc3n2)c(Cl)cc1Cl = 22

# value of inhibition zone (IZ), Pseudomonas aeruginosa, item Fc1cc(-c2cc(-c3nnc(COc4ccc(Cl)cc4Cl)o3)c3ccccc3n2)c(Cl)cc1Cl = 30

# value of inhibition zone (IZ), Pseudomonas aeruginosa, item Cc1cc(Cl)ccc1OCc1nnc(-c2cc(-c3cc(F)c(Cl)cc3Cl)nc3ccccc23)o1 = 12

# value of inhibition zone (IZ), Pseudomonas aeruginosa, item Cc1ccccc1OCc1nnc(-c2cc(F)c(Cl)cc2Cl)o1 = 28

# value of inhibition zone (IZ), Pseudomonas aeruginosa, item Fc1cc(-c2nnc(COc3ccccc3Cl)o2)c(Cl)cc1Cl = 15

###

System: Candida albicans
ASSAY_INFO: Antifungal activity against Candida albicans at 35 degC after 48 hrs
Type: functional
Entries and their MFC

Cc1cc(Cl)ccc1OCc1nnc(-c2cc(-c3cc(F)c(Cl)cc3Cl)nc3ccccc23)o1    > 100 µg/mL
Cc1cc(OCc2nnc(-c3cc(-c4cc(F)c(Cl)cc4Cl)nc4ccccc34)o2)ccc1Cl    > 100 µg/mL

Now, please, on to the next compound.
// sample Cc1ccc(OCc2nnc(-c3cc(-c4cc(F)c(Cl)cc4Cl)nc4ccccc34)o2)cc1 , its MFC was > 100 µg/mL
